Target: TMPRSS2 (Homo sapiens)
Sequence (O15393 106-492 limits assumed): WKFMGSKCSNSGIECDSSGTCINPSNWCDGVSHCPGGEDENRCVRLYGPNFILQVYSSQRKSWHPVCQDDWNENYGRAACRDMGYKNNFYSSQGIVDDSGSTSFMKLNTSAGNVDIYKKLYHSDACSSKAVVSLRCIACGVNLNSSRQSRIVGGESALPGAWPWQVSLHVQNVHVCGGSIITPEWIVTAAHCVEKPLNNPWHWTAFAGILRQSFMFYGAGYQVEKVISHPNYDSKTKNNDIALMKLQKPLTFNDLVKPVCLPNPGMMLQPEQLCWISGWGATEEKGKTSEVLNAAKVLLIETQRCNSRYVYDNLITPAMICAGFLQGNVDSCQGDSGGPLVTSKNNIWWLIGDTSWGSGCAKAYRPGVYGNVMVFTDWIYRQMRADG
Assay: Fluorogenic kinetic enzyme inhibitor assay, TMPRSS2
Format: biochemical
Set-up: purchased Cusabio Technology CSB-YP023924HU
Settings: read-out: TMPRSS2 IC50
pIC50 overview
pIC50 is a log-scale quantity: -log10 of the concentration expressed in molar.

# annotated cases, reported pIC50 shown
CC(=O)N[C@@H](CO)C(=O)N[C@@H](CCC(N)=O)C(=O)N[C@@H](CC(C)C)C(=O)N[C@@H](CCCNC(=N)N)C(=O)c1nccs1    8.81
CC(=O)N[C@@H](CCCCNC(=N)N)C(=O)N[C@@H](Cc1cncn1COCc1ccccc1)C(=O)N[C@@H](CCC(C)C)C(=O)N[C@H](CCCNC(=N)N)C(=O)c1nc2ccccc2s1    8.12
N=C(N)NCCC[C@H](NC(=O)[C@H](Cc1ccc(F)cc1)NC(=O)OCC1c2ccccc2-c2ccccc21)C(=O)c1nc2ccccc2s1    7.85
CCC(C)[C@H](NC(C)=O)C(=O)N[C@@H](CO)C(=O)N[C@@H](Cc1ccccc1)C(=O)N[C@@H](CCCNC(=N)N)C(=O)c1nc2ccccc2s1 (some centres unmarked)    10.17
CC(=O)N[C@@H](Cc1c[nH]c2ccccc12)C(=O)N[C@@H](Cc1ccccc1)C(=O)N[C@@H](CCCNC(=N)N)C(=O)c1nc2ccc(C(=O)O)cc2s1    9.65

With those in mind, consider the next molecule.
CSCC[C@@H]1NC(=O)[C@@H](NC(C)=O)CC(=O)NCCCC[C@@H](C(=O)N[C@@H](CCCNC(=N)N)C(=O)c2nc3ccccc3s2)NC1=O yielded pIC50 of 9.40

* * *

Biological target: hepsin (Homo sapiens, UniProt P05981)
Construct: purchased R&D Systems 4776-SE-010
Sequence (P05981 163-417 limits assumed): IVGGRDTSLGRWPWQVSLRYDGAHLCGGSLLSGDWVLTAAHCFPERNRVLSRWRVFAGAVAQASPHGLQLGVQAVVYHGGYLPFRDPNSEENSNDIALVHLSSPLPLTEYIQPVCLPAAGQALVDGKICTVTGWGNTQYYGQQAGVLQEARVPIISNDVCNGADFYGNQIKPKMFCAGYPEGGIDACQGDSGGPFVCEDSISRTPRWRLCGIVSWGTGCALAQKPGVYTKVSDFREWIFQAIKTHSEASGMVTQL
Sequence (P05981 1-162 partner limits assumed): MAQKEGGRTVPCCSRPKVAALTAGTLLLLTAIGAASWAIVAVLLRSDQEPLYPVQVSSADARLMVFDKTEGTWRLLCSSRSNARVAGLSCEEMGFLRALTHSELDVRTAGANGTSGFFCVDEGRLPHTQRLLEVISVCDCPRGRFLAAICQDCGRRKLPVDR
Assay: Fluorogenic kinetic enzyme inhibitor assay, hepsin
Type: biochemical
Details: read-out: Hepsin IC50
# strict inequality: IC50 < 0.4 nM yields MET, everything else yields NOT MET

N=C(N)NCCC[C@H](NC(=O)[C@H](Cc1ccccc1)NC(=O)[C@H](CCC(N)=O)NS(=O)(=O)Cc1ccccc1)C(=O)c1nc2ccccc2s1    MET
CCC(C)[C@H](NC(C)=O)C(=O)N[C@@H](CCC(N)=O)C(=O)N[C@@H](Cc1c[nH]c2ccccc12)C(=O)N[C@@H](CCCNC(=N)N)C(=O)c1nc2ccccc2s1 (stereo partly drawn)    MET
CN(C)[C@@H](CCC(N)=O)C(=O)N[C@@H](Cc1ccccc1)C(=O)N[C@H](CCCNC(=N)N)C(=O)c1nc2ccccc2s1    NOT MET
N=C(N)NCCC[C@H](NC(=O)[C@H](Cc1cccc2ccccc12)NC(=O)OCC1c2ccccc2-c2ccccc21)C(=O)c1nc2ccccc2s1    NOT MET
N=C(N)NCCC[C@H](NC(=O)[C@H](Cc1cccc(Cl)c1)NC(=O)OCC1c2ccccc2-c2ccccc21)C(=O)c1nc2ccccc2s1    NOT MET

[Q] For N=C(N)NCCC[C@H](NC(=O)[C@H](Cc1cccs1)NC(=O)OCC1c2ccccc2-c2ccccc21)C(=O)c1nc2ccccc2s1 , is the recorded IC50 below the cut-off of 0.4 nM?
[A] NOT MET

[Q] For N=C(N)NCCC[C@H](NC(=O)[C@H](Cc1ccccc1)NC(=O)[C@H](CCC(N)=O)N1CCCCC1)C(=O)c1nc2ccccc2s1 , is the recorded IC50 below the cut-off of 0.4 nM?
[A] MET

* * *

Target: matriptase (Homo sapiens)
Assay: HyCoSuL P4-P2 substrate specificity screening, matriptase
Format: biochemical
Conditions: residue fixed at P2 position; P1-Arg HyCoSuL, 100 μM; best recognized amino acid set to 100%
Sequence (Q9Y5Y6 whole entry): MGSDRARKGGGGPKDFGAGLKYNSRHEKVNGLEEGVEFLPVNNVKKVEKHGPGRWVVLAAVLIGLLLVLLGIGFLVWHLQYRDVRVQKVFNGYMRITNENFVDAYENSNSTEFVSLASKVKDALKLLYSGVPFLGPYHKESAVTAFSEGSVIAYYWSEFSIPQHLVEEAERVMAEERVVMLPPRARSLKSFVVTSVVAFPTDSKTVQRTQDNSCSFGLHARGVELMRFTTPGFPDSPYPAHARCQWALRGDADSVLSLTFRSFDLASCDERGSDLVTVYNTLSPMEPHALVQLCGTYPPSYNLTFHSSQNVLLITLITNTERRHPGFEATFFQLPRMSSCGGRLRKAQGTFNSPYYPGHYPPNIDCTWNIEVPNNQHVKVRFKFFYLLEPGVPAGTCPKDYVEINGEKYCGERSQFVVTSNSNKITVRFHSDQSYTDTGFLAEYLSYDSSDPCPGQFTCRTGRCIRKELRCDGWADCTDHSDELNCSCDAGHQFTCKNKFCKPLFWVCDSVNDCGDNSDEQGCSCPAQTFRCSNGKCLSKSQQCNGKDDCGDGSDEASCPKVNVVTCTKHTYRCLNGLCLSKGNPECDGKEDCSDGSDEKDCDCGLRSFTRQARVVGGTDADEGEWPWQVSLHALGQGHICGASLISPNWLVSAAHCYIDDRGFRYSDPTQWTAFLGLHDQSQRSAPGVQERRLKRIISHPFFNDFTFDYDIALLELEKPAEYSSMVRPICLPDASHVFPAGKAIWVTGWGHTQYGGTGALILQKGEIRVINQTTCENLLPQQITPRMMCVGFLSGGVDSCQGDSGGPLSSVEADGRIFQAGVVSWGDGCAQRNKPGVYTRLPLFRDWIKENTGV
Readout: P2 Position Substrate Activity for matriptase (percent substrate cleavage/proteolysis) (%)
The reply should be a number in %, with the unit left off.

CC(C)CC[C@H](N)C(=O)O [L-hLeu]    5

With those in mind, consider the next compound.
Observed P2 Position Substrate Activity for matriptase (percent substrate cleavage/proteolysis) on matriptase (Homo sapiens), entry Cn1cc(C[C@H](N)C(=O)O)c2ccccc21 [L-Trp(Me)] , equals 1

* * *

Biological target: Factor Xa (Homo sapiens, UniProt P00742)
Construct: TMPRSS2; Matriptase; Hepsin; HGFA; Thrombin; Factor Xa
Sequence (P00742 235-488 limits assumed): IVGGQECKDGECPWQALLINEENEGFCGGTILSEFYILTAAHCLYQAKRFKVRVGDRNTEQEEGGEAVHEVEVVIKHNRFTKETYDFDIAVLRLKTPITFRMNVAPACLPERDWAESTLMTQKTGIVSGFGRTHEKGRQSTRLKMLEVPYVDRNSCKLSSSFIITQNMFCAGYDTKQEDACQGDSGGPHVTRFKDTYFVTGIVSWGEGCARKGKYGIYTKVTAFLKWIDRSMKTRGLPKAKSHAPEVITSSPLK
Sequence (P00742 41-179 partner limits assumed): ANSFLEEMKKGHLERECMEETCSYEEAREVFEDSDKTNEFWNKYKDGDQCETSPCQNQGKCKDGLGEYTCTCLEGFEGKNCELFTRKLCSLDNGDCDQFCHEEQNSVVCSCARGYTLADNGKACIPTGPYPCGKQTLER
Experiment: Fluorogenic assay, Factor Xa
Type: biochemical
Readout: IC50 (nM)
The reply should be a number in nM, with the unit left off.

CC(=O)N[C@@H](CC(C)C)C(=O)N[C@@H](CCC(N)=O)C(=O)N[C@@H](Cc1ccccc1)C(=O)N[C@@H](CCCNC(=N)N)C(=O)c1nc2ccccc2s1 yielded IC50 of 219

* * *

Target: Thrombin (Homo sapiens, UniProt P00734)
Readout: IC50

# annotated cases, reported IC50 shown
N=C(N)NCCC[C@@H](NC(=O)[C@H](Cc1ccccc1)NC(=O)[C@H](CCC(N)=O)NCc1ccccc1)C(=O)c1nc2ccccc2s1    > 20 µM
N=C(N)NCCC[C@@H](NC(=O)[C@H](Cc1ccccc1)NC(=O)[C@H](CCC(N)=O)N1CCCCC1)C(=O)c1nc2ccccc2s1    > 20 µM
CC(=O)N[C@H]1Cc2ccc(cc2)OC/C=C\C[C@@H](C(=O)N[C@@H](CCCNC(=N)N)C(=O)c2nc3ccccc3s2)NC(=O)[C@@H](Cc2c[nH]c3ccccc23)NC1=O    19.9 µM

Observed IC50 on Thrombin (Homo sapiens, UniProt P00734), entry CC(=O)N[C@@H](CCCCNC(=N)N)C(=O)N[C@@H](CCC(C)C)C(=O)N[C@@H](CCCNC(=N)N)C(=O)c1nc2ccccc2s1 , equals > 20 µM

Observed IC50 on Thrombin (Homo sapiens, UniProt P00734), entry CC(=O)N[C@@H](CCCCN)C(=O)N[C@@H](CCC(N)=O)C(=O)N[C@@H](Cc1ccccc1)C(=O)N[C@@H](CCCNC(=N)N)C(=O)c1nccs1 , equals > 20 µM

Observed IC50 on Thrombin (Homo sapiens, UniProt P00734), entry CC(=O)N[C@H]1CCCCn2cc(nn2)C[C@H](C(=O)N[C@@H](CCCNC(=N)N)C(=O)c2nc3ccccc3s2)NC(=O)[C@H](CC(C)C)NC1=O [VD4118B] , equals > 20 µM

* * *

Target: matriptase (Homo sapiens)
Construct: purchased R&D Systems 3946-SEB-010
Test: Fluorogenic kinetic enzyme inhibitor assay, matriptase
Type: biochemical
Conditions: read-out: Matriptase IC50
Sequence (Q9Y5Y6 615-855 limits assumed): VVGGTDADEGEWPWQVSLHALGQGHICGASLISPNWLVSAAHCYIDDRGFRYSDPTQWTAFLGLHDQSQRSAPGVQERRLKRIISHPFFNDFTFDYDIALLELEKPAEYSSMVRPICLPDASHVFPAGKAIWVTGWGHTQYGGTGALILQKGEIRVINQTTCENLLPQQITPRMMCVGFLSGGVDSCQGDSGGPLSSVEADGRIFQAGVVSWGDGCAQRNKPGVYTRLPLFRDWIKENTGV
IC50 overview
The reply should be a number in nM, with the unit left off.

CC(=O)N[C@H](Cc1c[nH]c2ccccc12)C(=O)N[C@@H](Cc1ccccc1)C(=O)N[C@@H](CCCNC(=N)N)C(=O)c1nc2ccccc2s1 [PK-1-89A1] yielded IC50 of 2.6

CC(=O)N[C@H](Cc1c[nH]c2ccccc12)C(=O)N[C@@H](Cc1ccccc1)C(=O)N[C@@H](CCCNC(=N)N)C(=O)c1nc2ccc(C(=O)O)cc2s1 [PK-1-93] yielded IC50 of 136

CC(=O)N[C@@H](Cc1c[nH]c2ccccc12)C(=O)N[C@@H](CC(C)C)C(=O)N[C@@H](CCCNC(=N)N)C(=O)c1nc2ccc(C(=O)O)cc2s1 [PK-1-105] yielded IC50 of 144

* * *

log10(IC50) overview
Target: hepsin (Homo sapiens, UniProt P05981)
Construct: purchased R&D Systems 4776-SE-010
Assay: Fluorogenic kinetic enzyme inhibitor assay, hepsin
Format: biochemical
Conditions: read-out: Hepsin IC50
Plainly stated, the numbers are log10 of IC50 given in nM.

CC(=O)N[C@@H](Cc1c[nH]c2ccccc12)C(=O)N[C@@H](Cc1ccccc1)C(=O)N[C@@H](CCCNC(=N)N)C(=O)c1nc2ccc(C(=O)O)cc2s1 [PK-1-103]    0.32
CCC(C)[C@H](NC(C)=O)C(=O)N[C@H](C(=O)N[C@@H](Cc1ccccc1)C(=O)N[C@@H](CCCNC(=N)N)C(=O)c1nc2ccccc2s1)C(C)O (some centres unmarked) [MM4028-2]    -0.06
N=C(N)NCCC[C@H](NC(=O)[C@H](Cc1ccccc1)NC(=O)[C@H](CCC(N)=O)NC(=O)Cc1ccccc1)C(=O)c1nc2ccccc2s1 [CA1018]    -0.19
CC(=O)N[C@@H](Cc1c[nH]c2ccccc12)C(=O)N[C@@H](CC(C)C)C(=O)N[C@@H](CCCNC(=N)N)C(=O)c1nc2ccc(C(=O)O)cc2s1 [PK-1-105]    -0.44
CC(=O)N1CCC[C@H]1C(=O)N[C@@H](CO)C(=O)N[C@@H](CCCCN)C(=O)N[C@H](CCCNC(=N)N)C(=O)c1nc2ccccc2s1 [MM3194C]    1.40
CC(=O)N[C@H]1Cc2ccc(cc2)Oc2ccc(cc2)C[C@@H](C(=O)N[C@H](CCCNC(=N)N)C(=O)c2nc3ccccc3s2)NC(=O)[C@H](CC(C)C)NC1=O [VD5076A]    1.74
CC(=O)N[C@@H](CO)C(=O)N[C@@H](CCCCN)C(=O)N[C@@H](Cc1ccccc1)C(=O)N[C@@H](CCCNC(=N)N)C(=O)c1nccs1 [ZFH6095]    1.23
CC(=O)N[C@H]1CCCCn2cc(nn2)C[C@H](C(=O)N[C@H](CCCNC(=N)N)C(=O)c2nc3ccccc3s2)NC(=O)[C@H](CC(C)C)NC1=O [VD4118A]    2.07
CN(C)[C@@H](CCC(N)=O)C(=O)N[C@@H](Cc1ccccc1)C(=O)N[C@@H](CCCNC(=N)N)C(=O)c1nc2ccccc2s1 [CA1041-2]    0.28
N=C(N)NCCC[C@H](NC(=O)[C@H](Cc1ccccc1)NC(=O)[C@H](CCC(N)=O)NS(=O)(=O)C1CC1)C(=O)c1nc2ccccc2s1 [MF1104]    0.03

CC(=O)N[C@@H](CCCCN)C(=O)N[C@@H](CCC(N)=O)C(=O)N[C@@H](CC(C)C)C(=O)N[C@@H](CCCNC(=N)N)C(=O)c1nc2ccccc2s1 [ZFH7006] yielded log10(IC50) of -0.77

CCC[C@H](NC(=O)OCC1c2ccccc2-c2ccccc21)C(=O)N[C@@H](CCCNC(=N)N)C(=O)c1nc2ccccc2s1 [MF1150] yielded log10(IC50) of 1.47

CC(=O)N[C@@H](CO)C(=O)NCc1ccc(C(=O)N[C@@H](CC(C)C)C(=O)N[C@@H](CCCNC(=N)N)C(=O)c2nc3ccccc3s2)cc1 [AJS4016] yielded log10(IC50) of 1.34

CC(=O)N[C@@H](CO)C(=O)N[C@@H](CCC(N)=O)C(=O)N[C@@H](CC(C)C)C(=O)N[C@@H](CCCNC(=N)N)C(=O)c1nccs1 [ZFH6138] yielded log10(IC50) of -0.17

N=C(N)NCCC[C@H](NC(=O)[C@H](Cc1ccccc1)NC(=O)[C@H](CCC(N)=O)NS(=O)(=O)c1ccccc1)C(=O)c1nc2ccccc2s1 [MF1101] yielded log10(IC50) of -0.10

CC(=O)N1C(C(=O)N[C@@H](CCC(=O)OC2CCCCC2)C(=O)N[C@@H](Cc2ccc(F)cc2)C(=O)N[C@@H](CCCNC(=N)N)C(=O)c2nc3ccccc3s2)CC2CCCCC21 (some centres unmarked) [MF1064] yielded log10(IC50) of -0.08
